All figures here come from PubChem BioAssay (NCATS).

Tested on: CP191
Assay: qHTS profiling for inhibitors of Plasmodium falciparum proliferation (AID 504749); also: nearly all actives have a fitted effect of over 60% in size
Conditions: P. falciparum in erythrocytes, SYBR Green DNA, 72 h; series mostly up to 28.7 µM
Results filed as inconclusive are left out. Active and inactive are the calls of the source. Calls follow the shape of the dose curve; as a rule, active = well fitted inhibition curve with a large enough effect; inconclusive = small, poorly fitted or top-dose-only effect; inactive = flat fitted curve, though single readings scatter.
Give your call using only these classes: yes (1) = active, no (0) = inactive

Worked set:
Compound | Label
CC(=O)Oc1c(C)cc(OCC(O)CNC(C)C)c(C)c1C (centres undefined) | no (0)
CCCCCCCCCCCCCCCC(=O)OCC(COC(=O)CCCCCCCCCCCCCCC)OC(=O)CCCCCCCCCCCCCCC | no (0)
COC(C(=O)C(O)C(C)O)C1Cc2cc3cc(OC4CC(OC5CC(O)C(O)C(C)O5)C(O)C(C)O4)c(C)c(O)c3c(O)c2C(=O)C1OC1CC(OC2CC(OC3CC(C)(O)C(O)C(C)O3)C(O)C(C)O2)C(O)C(C)O1 (centres undefined) | yes (1)

Consider the additional compound presented here.
Status in this test for CCCCCCCCCCCCCC[n+]1ccc(C)cc1 ?
yes (1)

* * *

Tested on: CP269
Assay: qHTS profiling for inhibitors of Plasmodium falciparum proliferation (AID 504749); also: nearly all actives have a fitted effect of over 60% in size
Settings: P. falciparum in erythrocytes, SYBR Green DNA, 72 h; series mostly up to 28.7 µM
Inconclusive results are not listed. Activity calls are given as the source filed them. Calls come from the whole dose curve; as a rule, active = well fitted inhibition curve with a large enough effect; inconclusive = small, poorly fitted or top-dose-only effect; inactive = flat fitted curve, though single readings scatter.
Give your call using only these classes: active, inactive

Worked set:
Chemical Smiles | Target Desc | Label
O=C(O)CN(CCN(CC(=O)O)CC(=O)O)CC(=O)O | CP269 | inactive
CCCCCCCCCCCCCC[n+]1ccc(C)cc1 | CP269 | active
CC[C@@]1(O)C(=O)OCc2c1cc1n(c2=O)Cc2cc3c([N+](=O)[O-])cccc3nc2-1 | CP269 | active

Status in this test for CC(C)N=c1cc2n(-c3ccc(Cl)cc3)c3ccccc3nc-2cc1Nc1ccc(Cl)cc1 ?
inactive

Status in this test for Cc1c(C)c2c(c(C)c1O)CC[C@@](C)(CCC[C@@H](C)CCC[C@@H](C)CCCC(C)C)O2 ?
inactive

Status in this test for CCN(CC)Cc1cc(Nc2ccnc3cc(Cl)ccc23)ccc1O ?
active

* * *

System: CP286
Assay: qHTS profiling for inhibitors of Plasmodium falciparum proliferation (AID 504749); also: nearly all actives have a fitted effect of over 60% in size
Settings: P. falciparum in erythrocytes, SYBR Green DNA, 72 h; series mostly up to 28.7 µM
Inconclusive results are not listed. Active and inactive are the calls of the source. Calls come from the whole dose curve; as a rule, active = well fitted inhibition curve with a large enough effect; inconclusive = small, poorly fitted or top-dose-only effect; inactive = flat fitted curve, though single readings scatter. Peptide text beside a SMILES is read from it.
Give your call using only these classes: active, inactive

Worked set:
Compound | Label
O=C(O)CN(CCN(CC(=O)O)CC(=O)O)CC(=O)O | inactive
CC(=O)N[C@@H](CC(=O)O)C(=O)N[C@@H](CCC(=O)O)C(=O)O (Ac-Asp-Glu-OH) | inactive
CO[C@H]1C[C@@H]2CC[C@@H](C)[C@@](O)(O2)C(=O)C(=O)N2CCCC[C@H]2C(=O)O[C@H]([C@H](C)C[C@@H]2CC[C@@H](OCCO)[C@H](OC)C2)CC(=O)[C@H](C)/C=C(\C)[C@@H](O)[C@@H](OC)C(=O)[C@H](C)C[C@H](C)/C=C/C=C/C=C/1C | active
CC(C(=O)O)c1ccc(N2Cc3ccccc3C2=O)cc1 (stereo not drawn) | inactive
Nc1ncnc2c1ncn2[C@@H]1O[C@H](COP(=O)(O)OP(=O)(O)OP(=O)(O)O)[C@@H](O)[C@H]1O | inactive

Status in this test for CN=C(NC#N)Nc1ccc(C2=NNC(=O)C[C@@H]2C)cc1 ?
inactive

Status in this test for COC(=O)[C@H]1[C@H]2C[C@@H]3c4[nH]c5ccccc5c4CCN3C[C@H]2C[C@@H](OC(=O)c2cc(OC)c(OC)c(OC)c2)[C@@H]1OC ?
active

Status in this test for C=CCSSSCC=C ?
inactive
